ED30 values by entry
- Tested on: Rattus norvegicus
- assay-text: Thymolytic activity in rat assessed as inhibition of thymus weight administered topically measured per pellet
- Assay type: organism-based
- test-conditions: in vivo, topical_or_ocular
property-measured: ED30

INSERT INTO results (molecule, assay_result) VALUES
  ('C[C@]12C=C(Br)C(=O)C=C1[C@H](F)C[C@H]1[C@@H]3CC[C@](O)(C(=O)CO)[C@@]3(C)C[C@H](O)[C@@]12F', '> 40 µg'),
  ('CC(=O)OCC(=O)[C@@]1(O)CC[C@H]2[C@@H]3C[C@@H](F)C4=CC(=O)C=C[C@]4(C)[C@@]3(F)[C@@H](O)C[C@@]21C', '> 40 µg'),
  ('CC(=O)OCC(=O)[C@@]1(OC(C)=O)CC[C@H]2[C@@H]3C[C@@H](F)C4=CC(=O)C(Br)=C[C@]4(C)[C@@]3(F)[C@@H](O)C[C@@]21C [HALOPREDONE ACETATE]', '> 1000 µg'),
  ('CC1(C)O[C@@H]2C[C@H]3[C@@H]4C[C@H](F)C5=CC(=O)C=C[C@]5(C)[C@@]4(F)[C@@H](O)C[C@]3(C)[C@]2(C(=O)CO)O1 [FLUOCINOLONE ACETONIDE]', '5 µg'),
  ('CC(=O)OCC(=O)[C@@]1(OC(C)=O)CC[C@H]2[C@@H]3C[C@@H](F)C4=CC(=O)C=C[C@]4(C)[C@@]3(F)[C@@H](O)C[C@@]21C', '> 40 µg'),
  ('C[C@]12C=CC(=O)C=C1[C@H](F)C[C@H]1[C@@H]3CC[C@](O)(C(=O)CO)[C@@]3(C)C[C@H](O)[C@@]12F', '> 40 µg'),
  ('CC(=O)OCC(=O)[C@@]1(OC(C)=O)CC[C@H]2[C@@H]3C[C@H](F)C4=CC(=O)C(Cl)=C[C@]4(C)[C@@]3(F)[C@@H](O)C[C@@]21C', '40 µg'),
  ('CC(=O)OCC(=O)[C@@]1(OC(C)=O)CC[C@H]2[C@@H]3C[C@H](F)C4=CC(=O)C(Br)=C[C@]4(C)[C@@]3(F)[C@@H](O)C[C@@]21C', '> 40 µg'),
  ('CC(=O)OCC(=O)[C@@]1(O)CC[C@H]2[C@@H]3C[C@H](F)C4=CC(=O)C=C[C@]4(C)[C@@]3(F)[C@@H](O)C[C@@]21C', '20 µg'),
  ('CC(=O)OCC(=O)[C@@]1(OC(C)=O)CC[C@H]2[C@@H]3C[C@H](F)C4=CC(=O)C=C[C@]4(C)[C@@]3(F)[C@@H](O)C[C@@]21C', '5 µg'),
  ('C[C@]12C=C(Cl)C(=O)C=C1[C@H](F)C[C@H]1[C@@H]3CC[C@](O)(C(=O)CO)[C@@]3(C)C[C@H](O)[C@@]12F', '> 40 µg'),
  ('CC(=O)OCC(=O)[C@@]1(O)CC[C@H]2[C@@H]3C[C@@H](F)C4=CC(=O)C(Cl)=C[C@]4(C)[C@@]3(F)[C@@H](O)C[C@@]21C', '> 40 µg'),
  ('CC(=O)OCC(=O)[C@@]1(O)CC[C@H]2[C@@H]3C[C@@H](F)C4=CC(=O)C(Br)=C[C@]4(C)[C@@]3(F)[C@@H](O)C[C@@]21C', '> 40 µg'),
  ('CC(=O)OCC(=O)[C@@]1(OC(C)=O)CC[C@H]2[C@@H]3C[C@@H](F)C4=CC(=O)C(Cl)=C[C@]4(C)[C@@]3(F)[C@@H](O)C[C@@]21C', '> 40 µg'),
  ('C[C@]12C=CC(=O)C=C1[C@@H](F)C[C@H]1[C@@H]3CC[C@](O)(C(=O)CO)[C@@]3(C)C[C@H](O)[C@@]12F', '20 µg');

Values compiled from ChEMBL document CHEMBL3244040.
